# Test system: Mus musculus
# Assay notes: Analgesic activity in albino mouse assessed as forepaw licking/jumping latency time at 10 mg/kg, ip measured after 30 mins by hot plate test (reference value: 5.02 +/- 0.09 sec)
# Type: functional
# Run conditions: 0.5 h
Listed next: entries and their corresponding Time.
Note: unit s is implicit; provide only the numeric part.

Sample records with Time:
Smiles representation | Time, s
COc1cc(/C=C/C(=O)/C=C(O)/C=C/c2ccc(OC(=O)[C@@H](CCSC)NC(=O)OCc3ccccc3)c(OC)c2)ccc1OC(=O)[C@@H](CCSC)NC(=O)OCc1ccccc1 | 5.48
COc1cc(/C=C/C(=O)/C=C(O)/C=C/c2ccc(OC(=O)[C@H](CCSC)NC(=O)OCC3c4ccccc4-c4ccccc43)c(OC)c2)ccc1OC(=O)[C@H](CCSC)NC(=O)OCC1c2ccccc2-c2ccccc21 | 6.82

Moving on to the next molecule.
Query: Give Time for `COc1cc(/C=C/C(=O)/C=C(O)/C=C/c2ccc(OC(=O)[C@H](CCSC)NC(=O)OCc3ccccc3)c(OC)c2)ccc1OC(=O)[C@H](CCSC)NC(=O)OCc1ccccc1`
Response: 5.32

----------
# System: Rattus norvegicus
# Assay notes: Antiinflammatory activity in Wistar rat model of carrageenan-induced paw edema assessed as reduction in thickness of paw edema at 10 mg/kg, ip pretreated for 1 hr followed by carrageenan challenge and measured after 2 hrs (reference value: 2.06 +/-0.09 mm)
# Format: functional
# Run conditions: time 3 hrs
// label = TRUE if Activity is not less than 1 mm, otherwise FALSE

Smiles representation | Classification
COc1cc(/C=C/C(=O)/C=C(O)/C=C/c2ccc(OC(=O)[C@@H](C)NC(=O)OCc3ccccc3)c(OC)c2)ccc1OC(=O)[C@@H](C)NC(=O)OCc1ccccc1 | FALSE
COc1cc(/C=C/C(=O)/C=C(O)/C=C/c2ccc(OC(=O)[C@H](CCSC)NC(=O)OC(C)(C)C)c(OC)c2)ccc1OC(=O)[C@H](CCSC)NC(=O)OC(C)(C)C | TRUE
COc1cc(/C=C/C(=O)/C=C(O)/C=C/c2ccc(OC(=O)[C@H](CCC(N)=O)NC(=O)OC(C)(C)C)c(OC)c2)ccc1OC(=O)[C@H](CCC(N)=O)NC(=O)OC(C)(C)C | TRUE
COc1cc(/C=C/C(=O)/C=C(O)/C=C/c2ccc(OC(=O)CNC(=O)OCC3c4ccccc4-c4ccccc43)c(OC)c2)ccc1OC(=O)CNC(=O)OCC1c2ccccc2-c2ccccc21 | FALSE
COc1cc(/C=C/C(=O)/C=C(O)/C=C/c2ccc(OC(=O)[C@H](C)NC(=O)OC(C)(C)C)c(OC)c2)ccc1OC(=O)[C@H](C)NC(=O)OC(C)(C)C | TRUE
COc1cc(/C=C/C(=O)/C=C(O)/C=C/c2ccc(OC(=O)[C@H](N)CCSC)c(OC)c2)ccc1OC(=O)[C@H](N)CCSC.Cl.Cl | FALSE

Would you kindly look at the next entry?
Query: Could you verify whether the entry `COc1cc(/C=C/C(=O)/C=C(O)/C=C/c2ccc(OC(=O)CCNC(=O)OC(C)(C)C)c(OC)c2)ccc1OC(=O)CCNC(=O)OC(C)(C)C` shows Activity of no less than 1 mm?
Response: TRUE
